Where these numbers come from: patent US20130345129A1

Target: T1, mouse GLP-1 receptor (mouse, UniProt O35659 22-463)
T1 sequence (looked up): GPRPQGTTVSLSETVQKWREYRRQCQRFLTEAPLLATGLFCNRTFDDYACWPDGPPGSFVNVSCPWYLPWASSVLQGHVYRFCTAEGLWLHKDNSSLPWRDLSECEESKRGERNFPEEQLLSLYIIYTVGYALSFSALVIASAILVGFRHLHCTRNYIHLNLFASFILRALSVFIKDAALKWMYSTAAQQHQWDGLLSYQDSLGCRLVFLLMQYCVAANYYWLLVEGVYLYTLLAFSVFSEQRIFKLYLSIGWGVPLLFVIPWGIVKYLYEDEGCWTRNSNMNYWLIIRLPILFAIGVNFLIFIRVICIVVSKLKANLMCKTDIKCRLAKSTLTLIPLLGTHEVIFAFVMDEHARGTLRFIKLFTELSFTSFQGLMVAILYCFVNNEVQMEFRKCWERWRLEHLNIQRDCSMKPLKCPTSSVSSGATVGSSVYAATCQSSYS
Assay: cell-based or functional assay
No end group written: not given here.
metric: Relative Activity (cAMP synthesis, EC50 relative to GLP-1 = 1)

| binder | reported_result |
| --- | --- |
| HAEGTFTSDVSSYLEGQAAKEFIAWLVKGC(disialo oligosaccharide)G [36Cys GLP-1-disialo] | 1.9 relative (GLP-1 = 1) |
| HAEGTFTSDVSSYLEGQAAKEFIAWLVKGRGC (disialo oligosaccharide chain added Cys at position 38 (added after 37Gly)) [38Cys GLP-1-disialo] | 1.9 relative (GLP-1 = 1) |

Continue with the next binder.
In plain terms, HAEC(disialo oligosaccharide)TFTSDVSSYLEGQAAKEFIAWLVKGRG [10Cys GLP-1-disialo] has a documented Relative Activity (cAMP synthesis, EC50 relative to GLP-1 = 1) of < 0.1 relative (GLP-1 = 1)
